experiment: COS7 lysate on small-molecule microarray, probe aHis, 635 nm (AID 1123); conditions: COS7 cell lysate, fluorescence, higher = more signal;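 further: z-score combines 667nm fluorescence intensity with signal-to-noise per printed compound spot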
MEASURE NAME: composite z-score

{"MOLECULE": "C[C@]12CCC3c4ccc(OCC5CO5)cc4CCC3C1CC[C@@H]2O (some centres undefined)", "MEASURE NAME": "composite z-score", "NUMERIC RESULT": 0.528}
{"MOLECULE": "CC(=O)OC[C@H]1O[C@@H](ON=C2[C@H]3CCn4c(=O)n(-c5ccccc5)c(=O)n4[C@H]3[C@H](O)[C@@H]3O[C@H]23)[C@H](OC(C)=O)[C@@H](OC(C)=O)[C@@H]1OC(C)=O", "MEASURE NAME": "composite z-score", "NUMERIC RESULT": 1.09}
{"MOLECULE": "COC(=O)CC=C[C@@H](C)[C@@H](C=NOC[C@@H](O)[C@H]1O[C@@H]2OC(C)(C)O[C@@H]2[C@H]1O)OC", "MEASURE NAME": "composite z-score", "NUMERIC RESULT": -0.104}
{"MOLECULE": "CCOC(=O)NN=C1C[C@@H](O)[C@@H](O)[C@@H]2[C@@H]3C(=O)N(CC)C(=O)[C@@H]3CC[C@H]12", "MEASURE NAME": "composite z-score", "NUMERIC RESULT": 0.0053}
